# assay-target: T1, H6-tagged OsTPR2 N-terminal domain (TPD), TPR2(1–210) (rice, UniProt Q5NBT9 1-210)
# T1 sequence (looked up): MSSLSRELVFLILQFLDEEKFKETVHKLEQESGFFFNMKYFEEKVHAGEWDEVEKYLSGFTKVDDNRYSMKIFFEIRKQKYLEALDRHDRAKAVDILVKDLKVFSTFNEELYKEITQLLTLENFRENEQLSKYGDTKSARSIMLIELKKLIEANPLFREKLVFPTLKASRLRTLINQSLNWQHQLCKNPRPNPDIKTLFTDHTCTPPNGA
# experimental-details: AlphaScreen or HTRF
readout-type: IC50 (µM)
Report as a plain number; the unit µM is understood.

Entry under test: DNGLELSLGLSC [monomeric NINJA EAR motif peptide (12 amino acids, untagged)] . Its IC50 was 38
